Target: human 5-HT2B receptors (Homo sapiens)
Construct: expressed in transfected cells; host or cells: CHO cell line
Sequence (P41595 whole entry): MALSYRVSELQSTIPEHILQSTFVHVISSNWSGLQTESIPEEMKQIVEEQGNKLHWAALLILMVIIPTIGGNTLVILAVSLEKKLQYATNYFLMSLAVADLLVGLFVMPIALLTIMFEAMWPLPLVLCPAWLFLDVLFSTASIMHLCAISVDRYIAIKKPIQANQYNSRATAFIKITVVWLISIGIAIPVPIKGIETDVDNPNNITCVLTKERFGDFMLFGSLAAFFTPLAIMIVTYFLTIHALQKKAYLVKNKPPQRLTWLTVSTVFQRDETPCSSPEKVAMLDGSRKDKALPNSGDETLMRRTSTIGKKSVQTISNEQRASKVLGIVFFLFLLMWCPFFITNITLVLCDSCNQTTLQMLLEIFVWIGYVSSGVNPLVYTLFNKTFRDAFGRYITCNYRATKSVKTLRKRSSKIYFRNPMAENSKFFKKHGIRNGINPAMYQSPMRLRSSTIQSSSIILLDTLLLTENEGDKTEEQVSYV
Assay: Binding to the 5-HT2B receptor, Method (b), [3H]-5-HT
reported-property: Ki (nM)
The figure you give is taken to be in nM; do not add the unit.

Form field: reported Ki of `CCOc1ccc2c(c1)c(C[C@H](C)N)c1n2CCC1`
830

###

Target: 5-HT2C receptor (Homo sapiens, UniProt P28335)
Sequence (P28335 33-458): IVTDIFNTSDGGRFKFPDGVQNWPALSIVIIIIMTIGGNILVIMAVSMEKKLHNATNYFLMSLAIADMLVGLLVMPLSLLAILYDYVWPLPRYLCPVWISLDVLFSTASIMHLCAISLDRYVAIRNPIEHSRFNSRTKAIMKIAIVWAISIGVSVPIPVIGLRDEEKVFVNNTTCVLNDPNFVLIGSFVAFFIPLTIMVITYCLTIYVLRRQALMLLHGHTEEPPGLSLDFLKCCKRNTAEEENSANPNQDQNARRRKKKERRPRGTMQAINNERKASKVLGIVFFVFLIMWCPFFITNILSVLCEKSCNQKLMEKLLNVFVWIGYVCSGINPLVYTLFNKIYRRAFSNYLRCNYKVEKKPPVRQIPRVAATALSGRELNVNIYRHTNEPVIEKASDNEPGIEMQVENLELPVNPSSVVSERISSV
Assay: Binding to the 5-HT2C receptor, Method (a), [3H]-5-HT
Set-up: expressed in transfected cells; host or cells: CHO cell line
Conditions: Method (a); [3H]-5-HT; CHO cell line; Ki by Cheng-Prusoff; read-out: Ki (2C)
reported-property: Ki (nM)
The figure you give is taken to be in nM; do not add the unit.

Form field: reported Ki of `CCOc1ccc2c(c1)c(C[C@H](C)N)c1n2CCC1`
11

###

Biological target: 5-HT2C receptor (Homo sapiens)
Assay: Functional activity, FLIPR calcium assay, CHO cells expressing human 5-HT2C
Conditions: FLIPR, CHO cells; read-out: h5-HT2c EC50
reported-property: pEC50
Worth noting: pEC50 values are minus log10 of concentrations stated in mol/L.

Write down the reported pEC50 of `C[C@H](N)Cc1c2n(c3ccc(OC4CC4)cc13)CCC2` , test system: 5-HT2C receptor (Homo sapiens).
8.52

###

Biological target: human 5-HT2B receptors (Homo sapiens)
Construct: expressed in transfected cells; host or cells: CHO cell line
Test: Binding to the 5-HT2B receptor, Method (b), [3H]-5-HT
Settings: Method (b); [3H]-5-HT; human 5-HT2B in CHO cell line; Ki by Cheng-Prusoff; read-out: Ki (2B)
reported-property: pKi
Worth noting: pKi values are minus log10 of concentrations stated in mol/L.

Form field: reported pKi of `COCCOc1ccc2c(c1)c(C[C@H](C)N)c1n2CCC1`
6.32
